// values below are reported melting point

These solved cases illustrate the format of a correct answer.
# compound, melting point
records = [
    ("COc1cc2c(cc1OC)/C(=C/Nc1ccc(N3CCN(C)CC3)cc1)C(=O)NC2=O [Example 37]", "273 to 274 °C"),
    ("O=C1NC(=O)c2cc(Br)ccc2/C1=C/Nc1ccc(CN2CCCCC2)cc1 [Example 44]", "242 to 243 °C"),
    ("O=C1NC(=O)c2ccc(Br)cc2/C1=C/Nc1ccc(CN2CCOCC2)cc1 [Example 286]", "209 to 210 °C"),
]

Need melting point, item C[C@@H]1CN(c2c(F)cc(N/C=C3\C(=O)NC(=O)c4ccc(-c5ccsc5)cc43)cc2F)C[C@H](C)N1 [Example 383]
195 to 196 °C

And then CC(=O)Nc1ccc(CN/C=C2\C(=O)NC(=O)c3ccc(I)cc32)cc1OC(C)=O [Example 146] , what is it?
264 to 265 °C

And then CCCOc1cn(C)c(CN/C=C2\C(=O)NC(=O)c3ccc(I)cc32)cc1=O [Example 471] , what is it?
176 to 196 °C (dec.)

And then CC1CN(c2ccc(N/C=C3\C(=O)NC(=O)c4ccc(Br)cc43)cc2)CC(C)N1 (centres unmarked) [Example 201] , what is it?
229 to 230 °C

And then O=C1NC(=O)c2ccc([N+](=O)[O-])cc2/C1=C/Nc1ccc(CN2CCCCC2)cc1 [Example 42] , what is it?
225 to 235 °C (dec.)
